Reference for the values: the supplement of paper PMC6555819

System: VDR homodimer (NR concentration 270 nM)
Test: PBM binding z-score (relative to random genomic background probes); higher = stronger binding; sequences stand for … in GC…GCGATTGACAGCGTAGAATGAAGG
Entries and their PBM binding z-score
endpoint label: PBM binding z-score

[
  {
    "sequence chain": "TCGAGTGGGTTAGGGGCATTCAGAATGGCGTCGA",
    "target": "VDR homodimer (NR concentration 270 nM)",
    "endpoint result": 1.54
  },
  {
    "sequence chain": "CATACAGGGTTAGCTAGGCCAGAGTAGGGACGGC",
    "target": "VDR homodimer (NR concentration 270 nM)",
    "endpoint result": -0.636
  },
  {
    "sequence chain": "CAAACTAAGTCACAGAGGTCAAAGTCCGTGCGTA",
    "target": "VDR homodimer (NR concentration 270 nM)",
    "endpoint result": 4.45
  },
  {
    "sequence chain": "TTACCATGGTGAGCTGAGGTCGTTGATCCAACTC",
    "target": "VDR homodimer (NR concentration 270 nM)",
    "endpoint result": 1.7
  },
  {
    "sequence chain": "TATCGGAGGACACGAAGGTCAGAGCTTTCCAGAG",
    "target": "VDR homodimer (NR concentration 270 nM)",
    "endpoint result": 1.46
  },
  {
    "sequence chain": "ATCGAAAGGTCGAAGGTGAATATACCCACCCGAA",
    "target": "VDR homodimer (NR concentration 270 nM)",
    "endpoint result": 0.834
  },
  {
    "sequence chain": "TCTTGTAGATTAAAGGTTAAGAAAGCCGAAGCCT",
    "target": "VDR homodimer (NR concentration 270 nM)",
    "endpoint result": 0.123
  },
  {
    "sequence chain": "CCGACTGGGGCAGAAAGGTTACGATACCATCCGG",
    "target": "VDR homodimer (NR concentration 270 nM)",
    "endpoint result": -0.0227
  },
  {
    "sequence chain": "TCTCGGAGGACACGAAAGGTAAGAGCTCGACATC",
    "target": "VDR homodimer (NR concentration 270 nM)",
    "endpoint result": -0.863
  },
  {
    "sequence chain": "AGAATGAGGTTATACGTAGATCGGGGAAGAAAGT",
    "target": "VDR homodimer (NR concentration 270 nM)",
    "endpoint result": 0.909
  },
  {
    "sequence chain": "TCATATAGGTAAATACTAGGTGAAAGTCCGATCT",
    "target": "VDR homodimer (NR concentration 270 nM)",
    "endpoint result": 0.521
  },
  {
    "sequence chain": "TCTATTAGTTGCAGGGCAACCGACGAGTCCGTTT",
    "target": "VDR homodimer (NR concentration 270 nM)",
    "endpoint result": 1.45
  }
]

###

System: PPARg:RXRa 270nM:90nM, anti-RXR (NR concentration 270 nM, RXRa partner concentration 90 nM)
Assay: PBM binding z-score (relative to random genomic background probes); higher = stronger binding; sequences stand for … in GC…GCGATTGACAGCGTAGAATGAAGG
Entries and their PBM binding z-score

[
  {
    "sequence chain": "CCTACTGGGCCACGAAAGGTCATTGAATCAGTGA",
    "PBM binding z-score": 5.1
  },
  {
    "sequence chain": "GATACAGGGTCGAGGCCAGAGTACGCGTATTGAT",
    "PBM binding z-score": 0.874
  },
  {
    "sequence chain": "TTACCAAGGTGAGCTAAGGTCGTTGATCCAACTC",
    "PBM binding z-score": 1.42
  },
  {
    "sequence chain": "CAAACTAGGTCAAGAGGTCAAAGCCCGCTTCCCG",
    "PBM binding z-score": 8.55
  },
  {
    "sequence chain": "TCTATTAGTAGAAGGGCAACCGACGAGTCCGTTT",
    "PBM binding z-score": 1.93
  },
  {
    "sequence chain": "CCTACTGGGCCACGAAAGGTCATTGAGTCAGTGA",
    "PBM binding z-score": 5.06
  },
  {
    "sequence chain": "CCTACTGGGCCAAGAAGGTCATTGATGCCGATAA",
    "PBM binding z-score": 2.94
  },
  {
    "sequence chain": "CGTCAAAGTTCAACTAAGGTAACGTAGAGCACGC",
    "PBM binding z-score": 5.6
  },
  {
    "sequence chain": "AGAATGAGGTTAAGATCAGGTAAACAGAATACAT",
    "PBM binding z-score": 2.31
  },
  {
    "sequence chain": "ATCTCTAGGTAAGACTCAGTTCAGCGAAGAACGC",
    "PBM binding z-score": 0.241
  },
  {
    "sequence chain": "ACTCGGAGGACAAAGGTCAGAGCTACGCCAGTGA",
    "PBM binding z-score": 7.06
  },
  {
    "sequence chain": "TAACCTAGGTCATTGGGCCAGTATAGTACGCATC",
    "PBM binding z-score": 4.88
  },
  {
    "sequence chain": "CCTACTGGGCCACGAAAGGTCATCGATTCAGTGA",
    "PBM binding z-score": 5.2
  },
  {
    "sequence chain": "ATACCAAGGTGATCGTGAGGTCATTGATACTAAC",
    "PBM binding z-score": 1.98
  },
  {
    "sequence chain": "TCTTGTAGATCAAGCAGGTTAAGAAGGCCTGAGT",
    "PBM binding z-score": 1.15
  },
  {
    "sequence chain": "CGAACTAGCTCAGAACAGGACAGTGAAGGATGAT",
    "PBM binding z-score": -0.694
  },
  {
    "sequence chain": "ACTAGTAGGCCAAGTTTGGGTCACTCAAACAAAG",
    "PBM binding z-score": 2.27
  },
  {
    "sequence chain": "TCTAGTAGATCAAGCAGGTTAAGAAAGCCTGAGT",
    "PBM binding z-score": 1.3
  },
  {
    "sequence chain": "ATATGTAGGTTATCGGGTCCTTCAGTTTGCGCAT",
    "PBM binding z-score": 4.43
  },
  {
    "sequence chain": "TCTAGCAGTCCAGAGGGTCACTCAAGAGGTACGG",
    "PBM binding z-score": 1.52
  },
  {
    "sequence chain": "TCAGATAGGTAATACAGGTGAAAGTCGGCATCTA",
    "PBM binding z-score": 2.37
  },
  {
    "sequence chain": "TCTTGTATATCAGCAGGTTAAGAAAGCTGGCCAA",
    "PBM binding z-score": 1.63
  },
  {
    "sequence chain": "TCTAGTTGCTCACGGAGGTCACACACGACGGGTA",
    "PBM binding z-score": 2.79
  },
  {
    "sequence chain": "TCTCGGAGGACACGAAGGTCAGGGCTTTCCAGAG",
    "PBM binding z-score": 1.75
  },
  {
    "sequence chain": "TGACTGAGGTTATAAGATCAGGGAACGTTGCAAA",
    "PBM binding z-score": 0.976
  },
  {
    "sequence chain": "ATATGTAGGTTACATCAGGGTCATTCAGGCTATG",
    "PBM binding z-score": 5.54
  },
  {
    "sequence chain": "CCTAGTAGGCCAATCTGGGTCACTCAAGGCTTGA",
    "PBM binding z-score": 3.08
  },
  {
    "sequence chain": "CAGCCTAGGTAAGGGCCAGTATAGGAGGAACGTT",
    "PBM binding z-score": -0.51
  },
  {
    "sequence chain": "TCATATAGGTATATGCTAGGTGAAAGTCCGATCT",
    "PBM binding z-score": 1.78
  },
  {
    "sequence chain": "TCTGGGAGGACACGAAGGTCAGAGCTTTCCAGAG",
    "PBM binding z-score": 1.36
  },
  {
    "sequence chain": "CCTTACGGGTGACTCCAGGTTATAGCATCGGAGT",
    "PBM binding z-score": 0.491
  },
  {
    "sequence chain": "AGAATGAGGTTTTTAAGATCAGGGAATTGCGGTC",
    "PBM binding z-score": 0.00452
  },
  {
    "sequence chain": "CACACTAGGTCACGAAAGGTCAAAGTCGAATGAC",
    "PBM binding z-score": 8.2
  },
  {
    "sequence chain": "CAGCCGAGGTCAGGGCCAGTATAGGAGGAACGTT",
    "PBM binding z-score": 4.49
  },
  {
    "sequence chain": "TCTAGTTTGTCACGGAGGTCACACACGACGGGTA",
    "PBM binding z-score": 3.52
  },
  {
    "sequence chain": "ATCTCTAGGTAAAGGTAGTTCAGTGAATGCAAAT",
    "PBM binding z-score": 2.17
  },
  {
    "sequence chain": "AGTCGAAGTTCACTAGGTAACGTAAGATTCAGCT",
    "PBM binding z-score": 3.43
  },
  {
    "sequence chain": "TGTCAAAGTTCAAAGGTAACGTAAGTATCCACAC",
    "PBM binding z-score": 7.64
  },
  {
    "sequence chain": "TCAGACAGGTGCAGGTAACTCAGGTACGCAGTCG",
    "PBM binding z-score": 1.31
  },
  {
    "sequence chain": "TCTAGCATGCCAGAGGGTCACTCAAGAGGTACGG",
    "PBM binding z-score": 1.69
  },
  {
    "sequence chain": "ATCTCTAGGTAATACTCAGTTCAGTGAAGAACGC",
    "PBM binding z-score": 0.567
  },
  {
    "sequence chain": "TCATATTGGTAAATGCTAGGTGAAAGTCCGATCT",
    "PBM binding z-score": 1.9
  },
  {
    "sequence chain": "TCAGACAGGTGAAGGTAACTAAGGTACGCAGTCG",
    "PBM binding z-score": 2.34
  },
  {
    "sequence chain": "TTCCCAAGGTGAAAGGTCGTTGATGCACGCCTTG",
    "PBM binding z-score": 7.35
  },
  {
    "sequence chain": "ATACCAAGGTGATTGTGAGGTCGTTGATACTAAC",
    "PBM binding z-score": 0.649
  },
  {
    "sequence chain": "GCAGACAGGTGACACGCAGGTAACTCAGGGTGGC",
    "PBM binding z-score": -0.241
  },
  {
    "sequence chain": "CCTACTGGGCCAAGGTCATTGAACAGTCAAAGCA",
    "PBM binding z-score": 4.55
  },
  {
    "sequence chain": "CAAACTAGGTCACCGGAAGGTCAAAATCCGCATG",
    "PBM binding z-score": 7.79
  },
  {
    "sequence chain": "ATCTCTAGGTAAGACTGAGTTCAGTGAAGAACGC",
    "PBM binding z-score": 0.369
  },
  {
    "sequence chain": "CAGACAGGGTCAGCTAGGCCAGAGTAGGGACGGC",
    "PBM binding z-score": 2.47
  },
  {
    "sequence chain": "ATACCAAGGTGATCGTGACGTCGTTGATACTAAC",
    "PBM binding z-score": 0.302
  }
]
